// provenance: patent US20150322051A1

System: Puccinia triticina; synonym: Puccinia recondita f. sp. tritici (PUCCRT)
Test: Wheat brown rust (PUCCRT) whole-plant fungicidal test
Type: in vivo
Details: topical, 72 h, low volume (track spray) application, 121.5 g/H, 3 Day Curative, read-out: Low Volume activity at 121.5 g/H PUCCRT 3DC (% disease control rating)
Experimental: All fungicides were evaluated using the aforementioned method for their activity vs. all target diseases, unless stated otherwise. Wheat leaf blotch and brown rust activity were also evaluated using track spray applications, in which case the fungicides were formulated as EC formulations, containing 0.1% Trycol 5941 in the spray solutions. […] Percent disease control was calculated using the ratio of disease severity on treated plants relative to untreated plants. […]
measure: pest or weed control at 121.5 g/ha

Consider the reported pest or weed control at 121.5 g/ha for these molecules:
smiles str | measure | reading
COc1ccnc(C(=O)N[C@H]2CCC[C@H](Cc3ccc(C(F)(F)F)cc3)[C@@H](Cc3ccc(OC(F)(F)F)cc3)[C@H](C)OC2=O)c1OC(C)=O | pest or weed control at 121.5 g/ha | < 70%
COc1ccnc(C(=O)N[C@H]2CCC[C@H](Cc3ccc(C(F)(F)F)cc3)[C@@H](CC(C)C)[C@H](C)OC2=O)c1OCOC(=O)C(C)C | pest or weed control at 121.5 g/ha | < 70%

Now take the following molecule into account.
Could you tell me which pest or weed control at 121.5 g/ha is on file for `COc1ccnc(C(=O)N[C@H]2CCC[C@H](CCCc3ccccc3)[C@@H](Cc3ccc(OC(F)(F)F)cc3)[C@H](C)OC2=O)c1OC(C)=O` ?
< 70%

====

List of pest or weed control at 121.5 g/ha values.
tested on: Puccinia triticina; synonym: Puccinia recondita f. sp. tritici (PUCCRT); test: Wheat brown rust (PUCCRT) whole-plant fungicidal test; assay type: in vivo; details: topical, 72 h, low volume (track spray) application, 121.5 g/H, 3 Day Curative, read-out: Low Volume activity at 121.5 g/H PUCCRT 3DC (% disease control rating)

Consider the reported pest or weed control at 121.5 g/ha for these compounds:
compound | pest or weed control at 121.5 g/ha
COc1ccnc(C(=O)N[C@H]2CCC[C@H](CCC(C)C)[C@@H](CCc3ccccc3)[C@H](C)OC2=O)c1OCOC(C)=O [Compound 34] | < 70%
CCCC[C@@H]1[C@@H](Cc2ccccc2)CCC[C@H](NC(=O)c2nccc(OC)c2OC(C)=O)C(=O)O[C@H]1C [Compound 1] | < 70%

Now take the following compound into account.
Could you tell me which pest or weed control at 121.5 g/ha is on file for COc1ccnc(C(=O)N[C@H]2CCC[C@H](Cc3ccccc3)[C@@H](Cc3ccccc3)[C@H](C)OC2=O)c1OCOC(C)=O [Compound 6] ?
> 70%

====

List of melting point values.

Consider the reported melting point for these compounds:
compound | reading
COc1ccnc(C(=O)N[C@H]2CCC[C@H](Cc3ccc(Cl)cc3)[C@@H](Cc3ccccc3)[C@H](C)OC2=O)c1OCOC(C)=O [Compound 19] | 98 to 100 °C
COc1ccnc(C(=O)N[C@H]2CCC[C@H](CCCc3ccccc3)[C@@H](Cc3ccc(OC(F)(F)F)cc3)[C@H](C)OC2=O)c1O [Compound 93] | 49 to 53 °C
C[C@@H]1OC(=O)[C@@H](N)CCC[C@H](Cc2ccccc2)[C@H]1Cc1ccc(OC(F)(F)F)cc1.Cl | 196 to 198 °C
C[C@@H]1OC(=O)[C@@H](N)CCC[C@H](CCCc2ccccc2)[C@H]1Cc1ccc(OC(F)(F)F)cc1.Cl | 227 to 232 °C
COc1ccnc(C(=O)N[C@H]2CCC[C@H](Cc3ccccc3)[C@@H](CC(C)C)[C@H](C)OC2=O)c1O [Compound 77] | 73 to 76 °C
C[C@@H]1OC(=O)[C@@H](N)CCC[C@H](Cc2ccc(C(F)(F)F)cc2)[C@H]1Cc1ccc(OC(F)(F)F)cc1.Cl | 215 to 217 °C

Could you tell me which melting point is on file for COc1ccnc(C(=O)N[C@H]2CCC[C@H](Cc3ccccc3)[C@@H](CC(C)C)[C@H](C)OC2=O)c1OCOC(C)=O [Compound 14] ?
60 to 64 °C

Could you tell me which melting point is on file for C[C@@H]1OC(=O)[C@@H](NC(=O)OC(C)(C)C)CCC[C@H](Cc2ccc(C(F)(F)F)cc2)[C@H]1Cc1ccc(OC(F)(F)F)cc1 [Compound 152] ?
65 to 67 °C

Could you tell me which melting point is on file for `CC(C)C[C@@H]1[C@@H](Cc2ccccc2)CCC[C@H](N)C(=O)O[C@H]1C.Cl` ?
221 to 224 °C
